Provide the recorded pKd for the entries that follow.
Target: T1, ANTIBODY EXPRESSION CONTROL
T1 construct: also called mouse anti-canine antibody (capture reagent of the expression control ELISA)
Test: SPR Biacore, expression control
Protocol: The affinity with which candidate mAbs bind canine, feline, and human (SEQ ID NO: 122; Human_OSMR) (R&D Systems, Minneapolis, Minn.) OSMR was determined using surface plasmon resonance (SPR) on a Biacore system (Biacore Life Sciences (GE Healthcare), Uppsala, Sweden). […] Chips were quenched with ethanolamine and the affinity with which all candidate mAbs bound to the immobilized OSMR was evaluated. […]
Give bare numbers, as −log10 of the molar value.

Binder	Recorded Value
Mu_02D09_VH (SEQ ID NO: 31)_G33A (antibody, V domains shown) VH: EVQLVESGGGLVKPGGSLTLSCAASGFTFSDYAMHWLRQAPEKGLEWVAYISSGSRAVFFADTVKGRFTISRDNAKNTLFLQMTSLRSDDTAMYYCARDRYDGRGFAYWGQGTLVTVSA VL: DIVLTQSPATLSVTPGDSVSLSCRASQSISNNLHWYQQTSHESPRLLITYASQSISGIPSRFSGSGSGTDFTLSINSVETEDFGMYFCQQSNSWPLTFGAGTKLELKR	10.65
Mu_02D09_VH (SEQ ID NO: 31)_S52A (antibody, V domains shown) VH: EVQLVESGGGLVKPGGSLTLSCAASGFTFSDYGMHWLRQAPEKGLEWVAYIASGSRAVFFADTVKGRFTISRDNAKNTLFLQMTSLRSDDTAMYYCARDRYDGRGFAYWGQGTLVTVSA VL: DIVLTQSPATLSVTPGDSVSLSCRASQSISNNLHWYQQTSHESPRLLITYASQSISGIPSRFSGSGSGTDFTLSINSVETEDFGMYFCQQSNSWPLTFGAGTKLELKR	10.63

Let us examine a further case.
Query string: Quick one: pKd for Mu_02D09_VL (SEQ ID NO: 33)_I29A (antibody, V domains shown) VH: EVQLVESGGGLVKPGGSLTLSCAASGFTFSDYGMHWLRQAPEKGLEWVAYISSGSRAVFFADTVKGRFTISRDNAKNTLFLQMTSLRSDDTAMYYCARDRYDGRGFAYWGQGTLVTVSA VL: DIVLTQSPATLSVTPGDSVSLSCRASQSASNNLHWYQQTSHESPRLLITYASQSISGIPSRFSGSGSGTDFTLSINSVETEDFGMYFCQQSNSWPLTFGAGTKLELKR ?
Result string: 9.15

Data provenance is patent US20220177594A1.
